- Tested on: Geobacillus caldoxylosilyticus GcL (SEQ ID NO: 1) variant GcL 14 (Q41P/S66A/S81A/T91S/R111K/F141/A144T/C147S/V1751/H178D/I182L/L183E/M244A/N245K)
- Procedure Details: Lactonase assay of variant GcL 14
- Type: biochemical
- Measurement Context: GcL 14, Table 6
List of kcat values.
State the answer as a number, implicitly in s⁻¹.

The examples below pair each entry with its known result.
In [3]: df
Out[3]:
                              compound  readout_number
0  CCCCCC1CCC(=O)O1 (stereo not shown)           23.61
1                           O=C1CCCCO1           22.13
2    CCCC1CCC(=O)O1 (stereo not shown)           20.95
3  CCCCC1CCCC(=O)O1 (stereo not shown)           23.61
4                            O=C1CCCO1            9.89

Per the records, this compound ( "CCCC(=O)N[C@H]1CCOC1=O" ) has kcat equal to 15.01

Per the records, this compound ( CCCCCCC1CCC(=O)O1 (stereo not shown) ) has kcat equal to 13.7

====

- System: Geobacillus caldoxylosilyticus lactonase GcL, wild type, SEQ ID NO: 1
- Procedure Details: Lactonase assay (pH indicator, cresol purple) of GcL wt
- Assay type: biochemical
- Measurement Context: 25° C., pH 8.3; Table 4, substrates without asterisk
Property Name: Km (µM)
State the answer as a number, implicitly in µM.

The examples below pair each entry with its known result.
>>> df
                                   compound  result_unit  readout_number
0              O=C1CCCCCO1 [ε-Caprolactone]           µM            10.6
1  CCCCC1CCCCC(=O)O1 (stereo not drawn) [ε-Decalactone]           µM            1.05
2  CCCCC1OC(=O)CC1C (stereo not drawn) [Whiskey lactone]           µM            0.67
3  CCCC1CCCC(=O)O1 (stereo not drawn) [δ-Octanolactone]           µM            18.3
4  CCCCCCC1CCC(=O)O1 (stereo not drawn) [γ-Decanolactone]           µM            7.14
5  CCCC1CCC(=O)O1 (stereo not drawn) [γ-Heptalactone]           µM            2.01
6  CCCCC1CCCC(=O)O1 (stereo not drawn) [δ-Nonalactone]           µM            8.05
7  CCCCCC1CCC(=O)O1 (stereo not drawn) [γ-Nonalactone]           µM            11.6

Per the records, this compound ( CCCCCC1CCCC(=O)O1 (stereo not drawn) [δ-Decalactone] ) has Km equal to 3.13

Per the records, this compound ( CCCCCCCC(=O)N[C@H]1CCOC1=O [C8-AHL] ) has Km equal to 3.12

Per the records, this compound ( O=C1CCCCO1 [δ-Valerolactone] ) has Km equal to 5.67

Per the records, this compound ( O=C1CCCO1 [γ-Butyrolactone] ) has Km equal to 21.1

====

- System: Geobacillus caldoxylosilyticus GcL (SEQ ID NO: 1) variant GcL 14 (Q41P/S66A/S81A/T91S/R111K/F141/A144T/C147S/V1751/H178D/I182L/L183E/M244A/N245K)
- Procedure Details: Lactonase assay of variant GcL 14
- Type: biochemical
- Measurement Context: GcL 14, Table 6
List of kcat values.
State the answer as a number, implicitly in s⁻¹.

The examples below pair each entry with its known result.
In [3]: df
Out[3]:
                              molecule  readout_number
0   CCCCCCCCCC(=O)CC(=O)N[C@H]1CCOC1=O           15.88
1           CCCCCCCC(=O)N[C@H]1CCOC1=O           18.38
2                          O=C1CCCCCO1           23.74
3  CCCCC1OC(=O)CC1C (stereo not shown)            7.98

Per the records, this molecule ( "CCCCCC(=O)CC(=O)N[C@H]1CCOC1=O" ) has kcat equal to 76.00

Per the records, this molecule ( CCCCCC1CCCC(=O)O1 (stereo not shown) ) has kcat equal to 13.7

Per the records, this molecule ( CCCCC1CCCCC(=O)O1 (stereo not shown) ) has kcat equal to 10.41

====

- Tested on: Geobacillus caldoxylosilyticus GcL (SEQ ID NO: 1) variant GcL 14 (Q41P/S66A/S81A/T91S/R111K/F141/A144T/C147S/V1751/H178D/I182L/L183E/M244A/N245K)
- Procedure Details: Lactonase assay of variant GcL 14
- Format: biochemical
- Measurement Context: GcL 14 vs GcL wt
Property Name: catalytic proficiency compared with the wt enzyme

In [3]: df
Out[3]:
                               molecule   result
0   CCCCC1OC(=O)CC1C (stereo not shown)  similar
1  CCCCCC1CCCC(=O)O1 (stereo not shown)  similar
2  CCCCC1CCCCC(=O)O1 (stereo not shown)  similar
3   CCCCCC1CCC(=O)O1 (stereo not shown)  similar

====

List of log10 of kcat values.
- Tested on: Geobacillus caldoxylosilyticus GcL (SEQ ID NO: 1) variant GcL 4 (C147S/H178D/L183E/M244A)
- Procedure Details: Lactonase assay of variant GcL 4
- Format: biochemical
- Measurement Context: GcL 4, Table 6
The common logarithm of kcat in s⁻¹ is what is listed.

The examples below pair each entry with its known result.
>>> print(df.to_string())
                                   compound  property_name  readout_number
0  CCCCCC1CCC(=O)O1 (centres unmarked) [γ-Nonalactone]  log10 of kcat            1.26
1  CCCCCC1CCCC(=O)O1 (centres unmarked) [δ-Decalactone]  log10 of kcat            1.01
2  CCCCCCC1CCC(=O)O1 (centres unmarked) [γ-Decanolactone]  log10 of kcat            1.35
3  CCCCC1OC(=O)CC1C (centres unmarked) [Whiskey lactone]  log10 of kcat            0.92

Reported Geobacillus caldoxylosilyticus GcL (SEQ ID NO: 1) variant GcL 4 (C147S/H178D/L183E/M244A) log10 of kcat for item O=C1CCCO1 [γ-Butyrolactone] was 0.93

Reported Geobacillus caldoxylosilyticus GcL (SEQ ID NO: 1) variant GcL 4 (C147S/H178D/L183E/M244A) log10 of kcat for item O=C1CCCCCO1 [ε-Caprolactone] was 1.10

Reported Geobacillus caldoxylosilyticus GcL (SEQ ID NO: 1) variant GcL 4 (C147S/H178D/L183E/M244A) log10 of kcat for item CCCCCC(=O)CC(=O)N[C@H]1CCOC1=O [3-oxo-C8-AHL] was 1.88

====

- Tested on: Geobacillus caldoxylosilyticus lactonase GcL, wild type, SEQ ID NO: 1
- Procedure Details: Lactonase assay (pH indicator, cresol purple) of GcL wt
- Type: biochemical
- Measurement Context: 25° C., pH 8.3; Table 4, substrates without asterisk
List of kcat values.
State the answer as a number, implicitly in s⁻¹.

The examples below pair each entry with its known result.
>>> print(df.to_string())
                             compound  property_name  readout_number
0   CCCC1CCC(=O)O1 (stereo not drawn)           kcat            1.77
1  CCCC1CCCC(=O)O1 (stereo not drawn)           kcat           12.58

Per the records, this compound ( "O=C1CCCCO1" ) has kcat equal to 1.27

Per the records, this compound ( CCCCCC1CCCC(=O)O1 (stereo not drawn) ) has kcat equal to 4.1

Per the records, this compound ( CCCCC1CCCCC(=O)O1 (stereo not drawn) ) has kcat equal to 1.01

Per the records, this compound ( CCCCC1OC(=O)CC1C (stereo not drawn) ) has kcat equal to 9.34

Per the records, this compound ( CCCCCC1CCC(=O)O1 (stereo not drawn) ) has kcat equal to 18.14

Per the records, this compound ( "O=C1CCCO1" ) has kcat equal to 2.49

Per the records, this compound ( CCCCCCC1CCC(=O)O1 (stereo not drawn) ) has kcat equal to 2.69

Per the records, this compound ( CCCCC1CCCC(=O)O1 (stereo not drawn) ) has kcat equal to 2.01

Per the records, this compound ( "CCCCCCCC(=O)N[C@H]1CCOC1=O" ) has kcat equal to 1.29

Per the records, this compound ( "O=C1CCCCCO1" ) has kcat equal to 8.79
